measured-on: Full length SHP2 protein (Recombinant Human SHP-2) (Homo sapiens (Human))
test-description: SHP2 biochemical assay (DiFMUP substrate, activating peptide IRSI_2pY)
applied-conditions: SHP-2 IC50 (nM) peptide, wild-type SHP-2, with activating peptide
property-label: IC50

[2H]C([2H])([2H])c1c(N2CCC3(CC2)Cc2ccccc2[C@H]3N)nc(C)n(-c2cccc(Cl)c2Cl)c1=O    1.7 nM
Cc1c(N2CCC3(CC2)Cc2ncccc2[C@H]3N)nc(C)n(-c2cccc(Cl)c2Cl)c1=O (single isomer, unassigned) [Compound 66b]    0.7 nM
Cc1c(N2CCC3(CC2)Cc2ncccc2[C@H]3N)nc(C)n(-c2cccc(Cl)c2Cl)c1=O (single isomer, unassigned) [Compound 66a]    48 nM
Cc1c(N2CCC3(CC2)Oc2ccccc2[C@H]3N)nc(C)n(-c2cccc(Cl)c2Cl)c1=O (single isomer, unassigned) [Compound 81b]    0.3 nM
Cc1c(N2CCC3(CC2)CO[C@@H](C)[C@H]3N)nc(C)n(-c2cccc(Cl)c2Cl)c1=O (single isomer, unassigned) [Compound 23b]    12 nM

###

measured-on: Full length SHP2 protein (Recombinant Human SHP-2) (Homo sapiens (Human), UniProt Q06124)
Sequence (Q06124 2-593): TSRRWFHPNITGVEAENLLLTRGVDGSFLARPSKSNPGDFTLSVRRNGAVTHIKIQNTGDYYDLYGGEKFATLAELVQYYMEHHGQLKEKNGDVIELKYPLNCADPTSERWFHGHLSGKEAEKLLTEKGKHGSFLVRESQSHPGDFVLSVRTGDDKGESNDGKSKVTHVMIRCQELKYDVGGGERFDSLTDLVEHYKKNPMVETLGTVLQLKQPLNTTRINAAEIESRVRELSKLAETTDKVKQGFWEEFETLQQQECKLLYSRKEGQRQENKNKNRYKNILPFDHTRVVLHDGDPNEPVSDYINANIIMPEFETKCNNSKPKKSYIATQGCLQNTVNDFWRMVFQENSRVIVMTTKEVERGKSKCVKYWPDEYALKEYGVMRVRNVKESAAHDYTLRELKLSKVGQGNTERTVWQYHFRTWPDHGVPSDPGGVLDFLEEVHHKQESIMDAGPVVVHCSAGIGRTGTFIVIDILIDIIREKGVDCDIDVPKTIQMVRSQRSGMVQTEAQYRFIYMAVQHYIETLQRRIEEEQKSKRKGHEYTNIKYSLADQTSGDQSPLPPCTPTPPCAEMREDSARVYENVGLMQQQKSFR
test-description: SHP2 biochemical assay (DiFMUP substrate, activating peptide IRSI_2pY)
applied-conditions: activating peptide IRSI_2pY 140 nM, DiFMUP, 60 min; read-out: SHP-2 biochemical assay IC50
pIC50: −log10 of the molar value. Counter-ions that a name gives are not always drawn.
Label 1.0 when pIC50 is at or above 6; otherwise label 0.0.

Cc1c(N2CCC3(CCC3N)CC2)nc(C)n(-c2cccc(Cl)c2Cl)c1=O (stereo not shown) [Compound 82]    1.0
Cc1c(N2CCC3(CCC[C@H]3N)CC2)nc(C)n(-c2cccc(Cl)c2Cl)c1=O [Compound 67b]    1.0
Cc1nc(C2=CCC(C)(CN)CC2)cc(=O)n1-c1cccc(Cl)c1Cl (stereo not shown) [Compound 9]    0.0
Cc1c(N2CCC(CN)(CO)CC2)nc(C)n(-c2cccc(Cl)c2Cl)c1=O [Compound 88]    1.0
Cc1c(N2CCC(C)(N)CC2)nc(C)n(-c2ccc3ccccc3c2Cl)c1=O [Compound 48]    0.0
Cc1nc(N2CCC(NC[C@H](O)CO)CC2)cc(=O)n1-c1cccc(Cl)c1Cl [Compound 42]    0.0
Cc1c(N2CCC(C)(N)CC2)nc(C)n(-c2ccc3nccnc3c2)c1=O [Compound 47]    0.0
Cc1c(N2CCC3(CC2)Oc2ccccc2[C@H]3N)nc(C)n(-c2cccc(Cl)c2Cl)c1=O (single isomer, unassigned) [Compound 81b]    1.0
Cc1c(N2CC(CN)C(C)(C)C2)nc(C)n(-c2cccc(Cl)c2Cl)c1=O (stereo not shown) [Compound 87]    0.0
Cc1c(N2CCCC(N)(CC(C)O)CC2)nc(C)n(-c2cccc(Cl)c2Cl)c1=O (stereo not shown) [Compound 115]    0.0
Cc1c(N2CCC3(CC2)CO[C@@H](C)[C@H]3N)nc(C)n(-c2cccc(Cl)c2Br)c1=O [Compound 97]    1.0
Cc1nc(N2CCCC(C)(N)CC2)cc(=O)n1-c1cccc(Cl)c1Cl (stereo not shown) [Compound 21, hydrochloride]    0.0

###

Parameter Fz: see the listing below.
test-description: Pharmacokinetics in mouse (oral / intravenous)
Format: in vivo
applied-conditions: female CD1 mice
property-label: Fz (%)

Cc1c(N2CCC3(CC2)Cc2ccccc2[C@H]3N)nc(C)n(-c2cccc(Cl)c2Cl)c1=O [Compound 74a]    100
Cc1c(N2CCC3(CC2)CO[C@@H](C)[C@H]3N)nc(C)n(-c2cccc(Cl)c2Cl)c1=O (single isomer, unassigned) [Compound 23b]    100
Cc1c(N2CCC3(CC2)Oc2ccccc2[C@H]3N)nc(C)n(-c2cccc(Cl)c2Cl)c1=O (single isomer, unassigned) [Compound 81b]    48
Cc1nc(N2CCC3(CC2)CO[C@@H](C)[C@H]3N)c(CO)nc1-c1cccc(Cl)c1Cl [RMC-4550, reference compound]    86
Cc1c(N2CCC3(CC2)Cc2ncccc2[C@H]3N)nc(C)n(-c2cccc(Cl)c2Cl)c1=O (single isomer, unassigned) [Compound 66b]    100
Cc1nc(N2CCC3(CC2)CO[C@@H](C)[C@H]3N)cc(=O)n1-c1cccc(Cl)c1Cl (single isomer, unassigned) [Compound 3b]    85
